# measurement.target: ScHof1
# assay.procedure: SPOT peptide array binding signal intensity (averaged, normalized) (arbitrary units (background-subtracted, floor 0; scale differs between SH3 domains)); higher = stronger binding of the SH3 domain to the peptide
SPOT peptide array binding signal intensity: recorded values

AIPPPVPNRPGGTTN | 3

Please give the measured SPOT peptide array binding signal intensity for this binder: RRRDFGAPANKRPRR
2

Next entry: APKREAPKPPANTSP
≤ 0

Next entry: LKVTPGRRAPTISKI
≤ 0
